The origin of these recorded values is the nanobody polyreactivity screen of Harvey et al. (2022).

TEST DETAILS: yeast display, Sf9 membrane polyspecificity reagent, FACS + sequencing; frameworks hold sequencing errors
MEASUREMENT NAME: polyreactivity (PSR sort gate)

Examples with their reported polyreactivity (PSR sort gate) follow.
{"RESIDUE CODES": "QVQLVESGGGLLQAGGSLRLSCAASGSTFEYNAMGWYRQAPGKERELVASSTNYADSVKGRFTISRDNAKNTVYLQMNSLKPEDTAVYYCAREQGVNRNHDNWGQGTQVTVSS", "polyreactivity (PSR sort gate)": "low polyreactivity"}
{"RESIDUE CODES": "QVQLVESGGGLVQAGGSLRLSCAASGSTLVGYVMGWYRQAPGKERELVATISRSGGSTYYADSVKGRFTISRDNAKNTVYLQMNSLKPEDTAVYYCATDLLNNVDYDYWGQGTQVTVSS", "polyreactivity (PSR sort gate)": "low polyreactivity"}
{"RESIDUE CODES": "QVQLQESGGGLVQAGGSLRLSCAASGTISDSGLMGWYRQAPGKERELVAGISSGGITNYADSVKGRFTISRDNAKKTVYLQMNSLKPEDTAVYWGQGTQLTVSS", "polyreactivity (PSR sort gate)": "low polyreactivity"}
{"RESIDUE CODES": "QVQLVESGGGLVQAGGSLRLSCAASGGTFSVNAMGWYRQAHGTERELVAAISWRGGSTYNADSVKGRFTISRDTAKNTFYLQMNSLKPEDTAVYYCAKYRYYYYWFNYWGQGTQVNVSS", "polyreactivity (PSR sort gate)": "high polyreactivity"}

Please report the recorded polyreactivity (PSR sort gate) for "QVQLVESGGGLVQAGGSLRLSCAASGRIFYYYAMGWYRQAPGKERELVAAIRWSGGSTYYADSVKGRFTISRDNEKNTVYLQMNSLKPEDTAVYYCAADSRTNGYDYWGQGTQVTVSS" .
high polyreactivity

Check "QVQLVESGGCLVQAGGSLRLSCAASGSIINYYAMGWFRQAPGKERELVAGITTSGGSTYYADSVKGRFTISRDNAKHTVDLQMNSLKPEDTAVYYCAAYDYSSSTYFLDDYWGQGTQVTVSS" too.
low polyreactivity

Check "QVQLVESGGGLVQAGGSLRLSCAASGNAIGWYRQAPGKERELVASINRSGGRTYYADSVKGRFTISRDNAKNTVYLQMNSLKPEDTAVYYCAARTHYDSDYWGQGTQVTVSS" too.
low polyreactivity

Check "QVQLVESGGGLVQAGGSLRLSCAASGIFWANTMEWYRQAPGKERELVAAISWSGDRTYYADSVKGRFTISRDNAKNTVYLQMNSLKPEDTAVYYCAAEGTGLQRYGYFGDDGYWGQGTQVTVSS" too.
low polyreactivity

* * *

TEST DETAILS: yeast display, Sf9 membrane polyspecificity reagent, FACS + sequencing; frameworks hold sequencing errors
MEASUREMENT NAME: polyreactivity (PSR sort gate)

Examples with their reported polyreactivity (PSR sort gate) follow.
{"RESIDUE CODES": "QVQLVESGGGLVQAGGSLRLSCAASGSIFRGNAMGWYRQAPGKERELVAVITWSGGSTYYADSVKGRFTISRDNAKNTVYLQMNSLKPEDTAVYYCNAARKQRVYFAGDYWGQGTQVTVSS", "polyreactivity (PSR sort gate)": "high polyreactivity"}
{"RESIDUE CODES": "QVQLVESGGGLVQAGGSLRLSCAASGRIFILYAMGWYRQAPAKERALVAAISSGGGRTYYADSVKGRFTISRDNAKNTVYLQMNSLKPEDTAVYYCATRRRRTSQRQGYDYWGQGTQVTVSS", "polyreactivity (PSR sort gate)": "high polyreactivity"}
{"RESIDUE CODES": "QVQLVESGGGLVQAGGSLRLSCAASGLIFVSYAMGWYRQAPGKERELVASITDSDSSTYYADSVKGRFTISRDNAKNTVYLQMNSLKPEDTAVYYCATGGRTEIWYPTLDYWGQGTQVTVSS", "polyreactivity (PSR sort gate)": "low polyreactivity"}
{"RESIDUE CODES": "QVQLVESGGGLFQAGGSLRLSSAASGIIFSTYAMGWYRQAHGKERELVAAITSTGSTNYADSVKGRFTISRDNAKNTVYLQMNSLKPEDTAVYYCAAEGHTAFLVYRVSPLQYDYWGQGTQVTVSS", "polyreactivity (PSR sort gate)": "low polyreactivity"}

Please look at the following sequence next.
Please report the recorded polyreactivity (PSR sort gate) for "QVQLVESGGCLVQAGGSLRLSCADSGSTFVIYYMGWYRQAPGKERELVAAISYSGGSTYYADSVKGRFTISRDNAKNTVYLQMNSLKPEDTAVYYGYDYWGQGTQVTVSS" .
low polyreactivity

* * *

TEST DETAILS: yeast display, Sf9 membrane polyspecificity reagent, FACS + sequencing; frameworks hold sequencing errors
MEASUREMENT NAME: polyreactivity (PSR sort gate)

Examples with their reported polyreactivity (PSR sort gate) follow.
{"RESIDUE CODES": "QVQLVESGGGLVQSGGSLRLSCAASGSTFSINPMGWYRQAPGKERELFAAITWRGVRTYYADSVKGRFTISRDNAKNTVYFQMNSLKPEDTAVYYCAADVVVAGHPGFDYWGQGTQVTVSS", "polyreactivity (PSR sort gate)": "high polyreactivity"}
{"RESIDUE CODES": "QVQLVESGGGLVQAGGSLRLSCAASGRTFSYYAMGWYRQAPGKERELVAVISVSGGSTYYADSVKGRFTISRDNAKNTVYLQMNSLKPEDTAVYYCNVDLYYGYDYWGQGTQVTVSS", "polyreactivity (PSR sort gate)": "low polyreactivity"}
{"RESIDUE CODES": "QVQLVESGGGLVQAGGSLRLSCAASGSTFPRYAMGWYRQAPGKERELVAAISKSGTITSYADSVKGRFTISRDNAKNTVYLQMNSLKPEDTAVYYCAKGRYWPYDYWGQGTQVTVSS", "polyreactivity (PSR sort gate)": "high polyreactivity"}
{"RESIDUE CODES": "QVQLVESGGGLVQAGGSLRLSCAASGLTLSYYAMGWYRQAPGKERELVAAISSGGSTYYADSVKGRFTISRDNAKNTVYLQMNSLKPEDTAVYYCAAQWWRLYWEYYYWGQGTQVTVSS", "polyreactivity (PSR sort gate)": "low polyreactivity"}

Please report the recorded polyreactivity (PSR sort gate) for "QVQLVESGGGLVQAGCSLRLTCAASGFTFYKYAMGWYRQAPGKERELVAAISRRGTSTYYADAVKGRFTISRDNAKNTVYLQMNSLKPEDTAVYYCNRDVSLSAFDYWGQGTQVTVSS" .
high polyreactivity

* * *

TEST DETAILS: yeast display, Sf9 membrane polyspecificity reagent, FACS + sequencing; frameworks hold sequencing errors
MEASUREMENT NAME: polyreactivity (PSR sort gate)

Examples with their reported polyreactivity (PSR sort gate) follow.
{"RESIDUE CODES": "QVQLVESGGGLVQAGGSLRLSCAASGSTFADYVMGWYRQAPGKERELVAAISRSGGSTYYADSVKGRFTISRDNAKNTVYLQMNSLKPEDTAVYYCATDITPAISVEYDYWGQGTQVTVSS", "polyreactivity (PSR sort gate)": "high polyreactivity"}
{"RESIDUE CODES": "QVQLVESGGGLVQAGRSLRLSCASSGSTIVNYAMGWYRQAPGKEMELVAAISRSGGRTYYADSVKGRFTISRDNAKNTVYLQMNSLKPEDTAVYYCARLLLSPEYGYWGQGTQVTVSS", "polyreactivity (PSR sort gate)": "high polyreactivity"}
{"RESIDUE CODES": "QVQLVESGGGLVQAGGSLRLSCAASGRTFEYYAMGWYRQAPGKERELVAAITYSGDSTYYADSVKGRFTISRDNAKNTVYLQMNSLKPEDTAVYYCAADWSSLKDDYWGQGTQVTVSS", "polyreactivity (PSR sort gate)": "low polyreactivity"}
{"RESIDUE CODES": "QVQLVESGGGLVKAGGSLRLSCDASGSILWENAMGWYRQAPGKERELVATISVSGGGTYYADSVKGRFTISRDNAKNTVYLQMNSLKPEDTAVYYCNARYGNESQGWEDYWGKGTQVTVSS", "polyreactivity (PSR sort gate)": "low polyreactivity"}
{"RESIDUE CODES": "QGQLVESGGALVQAGGSLRLSCAASGSTFVRNAMGWYRPAPRKERELVAAISNVGSTYYADSVKGRFTISRDNAKNTVYFQKNSLKPEDTAVYYCTKQLWYHKFNYWGQGTQVTVSS", "polyreactivity (PSR sort gate)": "low polyreactivity"}

Please report the recorded polyreactivity (PSR sort gate) for "QVQLVESGGRLVQAGGSLRLSCAASGFTYSPYAMGWYRQAPWKESELVAAITSSGGSTYYADSVKGRFTISRDNANNSVYLQMKSLKPEDTAVYYSAADYGYKYYWRYGYWGQGTQVTVSS" .
high polyreactivity

Check "QVQLVESGGGLVQAGGSLRLSCAASGSIFVGYAMGWYRQAPGKERELVAAISRSGGTTYYADSVKGRFTISRDTAKNTVYLQMNSLKPEDTAVYYCAAERWAYYRSGLWWPYDYWGQGTQVTVSS" too.
high polyreactivity

Check "QVQLVESGGGLVQAGGSLRLSCAASGRIFATNAMGLYRPAPGKERELVATITRSAGRTYYADSVKGRFTISRDNAKNTVYLQMNSLKPEDTAVYYCAASYWDTEPGYREYVYWGQGTQVTVSS" too.
low polyreactivity

Check "QVQLVESGGGLVQAGGSLRLSCAASGSTFAYNAKGWYRQAPGKERELTNYADSVKGRFTISRDNAKNTVYLQMNSLKPEDNAVYYCIAQIDFGVPDKRAWGYDYWGQGTQVTVSS" too.
low polyreactivity

Check "QDQLVESGGGLVQAGGSLRLSCAASGFTFNIYAMGWYRQAPGKERELVAAISWSGGRTNYADSVKGRFTISRDNAKKTVYLQMNSLKPEATAVYYCAVRYKSWYGFNYWGQGTQVTVSS" too.
high polyreactivity

Check "QVQLVESGGGLVQAGGSLRLSCAASGFTFPYYAMGWYRQAPGKERELVAAISTRGGSTYYADSVKGRFTISRDNAKNTVYLQMKSLKPEDTAVYYCAADPGRVTRVGVRYYYWGQGTQVTVSS" too.
high polyreactivity
